Read-out: E-selectin (Homo sapiens)
Test: BSK_3C_Eselectin: BioMAP Diversity Plus: 3C Assay for Eselectin Biomarker Activity (AID 2283015);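 on Outcome: cell surface E-selectin protein quantified by ELISA 24 h after dosing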
Conditions: primary human endothelial cells (HUVEC); actives raise or lower the signal
Procedure: BSK_3C is a cell-based, multiplexed-readout assay that uses umbilical vein endothelium, a human vascular primary cell, with measurements taken at 24 hours after chemical dosing in a 96-well plate.BSK_3C_Eselectin is an assay component measured in the BSK_3C assay. It measures E-selectin antibody related to regulation of gene expression using ELISA technology.Data from the assay component BSK_3C_Eselectin was analyzed into 1 assay endpoint. […]
Activity calls are given as the source filed them. How the source made its calls: active means hit-call score of the fitted dose curve at least 0.9, where 1 is the maximum; inactive means score below 0.9.
Outcome field: choose from Yes for active, No for inactive

A selection of reference data follows.
For `Clc1ccccc1Cl` , what call appears in the results of this test?
No

Then what about the compound `O=C(Nc1ccccc1)c1ccccc1I` ?
No

Okay, and `Nc1ccc(Cc2ccc(N)cc2)cc1` ?
No

How about `CO[C@@H]1[C@H](OC(=O)NC(=O)CCl)CC[C@]2(CO2)[C@H]1[C@@]1(C)O[C@@H]1CC=C(C)C` ?
Yes

Same question for `O=C(Oc1ccc(Br)cc1)N1CCN2CCC1CC2` please.
No

Now the compound `Nc1ccc(N=Nc2ccccc2)cc1`
No

More entries:
How was `ClCCOCCCl` classified in this test?
No

====

Test: ATG_PBREM_CIS: Attagene CIS-FACTORIAL HepG2 Assay for human Phenobarbital-responsive Enhancer Module (PBREM) (AID 2282955)
Details: HepG2 PBREM cis-reporter, Attagene multiplexed transcription; actives raise or lower the signal
Activity calls are given as the source filed them. The calls were made as follows: active = hit-call score of the fitted dose curve at least 0.9, where 1 is the maximum; inactive = score below 0.9.
Result category, one only: class 1 (active), class 0 (inactive)

Some entries whose results are on file:
Can you look up the reported call for `N#CC(Br)Br` for me?
class 0

One more compound: `Cc1ccc(N=C=O)cc1N=C=O`
class 0

Try this compound next: `O=C(Nc1ccccc1)c1ccccc1I`
class 0

Try this compound next: `COC(=O)c1ccccc1N`
class 0

Here is the next compound: `c1ccc2c(c1)oc1ccccc12`
class 0

How about this compound: `Cc1cc(N=Nc2ccccc2C)ccc1N`
class 1

And for `CCOC(=O)[C@]1(c2ccccc2)Oc2ccccc2[C@@H]1N` ?
class 1

And then `Cc1ccc(N)c(N)c1` , what is it?
class 0

Further cases:
Could you check what this test reported for `Nc1ccc(N=Nc2ccccc2)cc1` ?
class 1

Similarly, `CC(C)(C)OOC(C)(C)CCC(C)(C)OOC(C)(C)C` ?
class 0

What do you get for `Nc1ccc(Oc2ccc(N)cc2)cc1` ?
class 0

Param item: `Clc1ccc(Cl)c(Cl)c1`
class 0

Now consider CCC(C)c1ccc(O)cc1 (centres undefined) and answer again.
class 0

Next up: `CN(C)[C@@H]1C(=O)C(C(N)=O)=C(O)[C@@]2(O)C(=O)C3=C(O)c4c(O)cccc4[C@@](C)(O)[C@H]3C[C@@H]12`
class 0

Now the same for `Cc1cccc(N)c1N`
class 0

====

Read-out: solute carrier (SLC22A1), SLC22A1 (gene 6580)
Experiment: LTEA_HepaRG_SLC22A1: Life Technologies and Expression Analysis (LTEA) Assay for solute carrier (SLC22A1) using HepaRG (AID 2283524)
Details: mRNA level, 48 h; actives raise or lower the signal
Activity calls are given as the source filed them. The calls were made as follows: active = hit-call score of the fitted dose curve at least 0.9, where 1 is the maximum; inactive = score below 0.9.
Can you answer with just one of these options? y for active, n for inactive

# example entries with known answers
Could you please tell me the result logged for `Cc1ccc([N+](=O)[O-])cc1` in this assay?
n

Another molecule: ClC1=C(Cl)C2(Cl)C3C(Cl)C=CC3C1(Cl)C2(Cl)Cl (centres undefined)
n

Same again, this time with `CC(C)(C)OOC(C)(C)CCC(C)(C)OOC(C)(C)C`
n

Do the same for `c1ccc(N=Nc2ccccc2)cc1` please
n

Next record, please: `CS(=O)(=O)NC(=O)c1cc(Oc2ccc(C(F)(F)F)cc2Cl)ccc1[N+](=O)[O-]`
n

More entries:
Field: outcome | Entry: `C=CCc1ccc2c(c1)OCO2`
n

Also `C1=Cc2cccc3cccc1c23` , if possible.
n

What do we get for `O=C(Nc1ccccc1)c1ccccc1I` ?
y

Then this molecule: `O=[N+]([O-])c1ccc(Oc2ccc(Cl)cc2Cl)cc1`
n

Can you check `[As]#[In]` next?
n

What about `Nc1ccc([N+](=O)[O-])cc1` ?
n

And then `Cc1cc(N=Nc2ccccc2C)ccc1N` , what is it?
y

Another molecule: `O=[N+]([O-])C(Br)(CO)CO`
n

And for `c1ccc2c(c1)-c1cccc3cccc-2c13` ?
n
